target.desc: LPA/S1P GPCR of interest (Homo sapiens)
measurement.notes: Beta-Arrestin based assay (PathHunter)
readout.kind: EC50

Memo: C[C@@H](OC(=O)Nc1c(-c2ccc(-c3cc(F)c(OC4(C(=O)O)CC4)c(F)c3)cc2)nnn1C)c1ccccc1 [IT312] , reported EC50: < 50 nM

Memo: COc1cc(-c2cc3sc(-c4cnn(C)c4NC(=O)O[C@H](C)c4ccccc4)cc3s2)cnc1C1(C(=O)O)CC1 [IT275] , reported EC50: 50 to 500 nM

Memo: Cc1nsc(-c2cc3sc(-c4ccc(CC(=O)O)cc4Cl)cc3s2)c1NC(=O)O[C@H](C)c1ccccc1 [IT161] , reported EC50: > 500 nM

Memo: Cc1noc(-c2ccc(-c3ccc(Oc4nnn(C)c4C(=O)O)cc3)cc2)c1NC(=O)O[C@H](C)c1ccccc1 [IT471] , reported EC50: 50 to 500 nM

Memo: C[C@@H](OC(=O)Nc1c(-c2ccc(-c3cc(F)c(OC(C)(C)C(=O)O)c(F)c3)cc2)cnn1C)c1ccccc1 [IT503] , reported EC50: 50 to 500 nM

Memo: Cc1nnn(-c2ccc(-c3cc(F)c(Oc4ccccc4C(=O)O)c(F)c3)cc2)c1NC(=O)O[C@H](C)c1ccccc1 [IT408] , reported EC50: < 50 nM

Memo: Cc1nsc(-c2ccc(-c3cc(F)c(Oc4ncccc4C(=O)O)c(F)c3)cc2)c1NC(=O)O[C@H](C)c1ccccc1 [IT451] , reported EC50: < 50 nM

* * *

Assignment: determine reported EC50 for the given compounds.
target.desc: LPA/S1P GPCR of interest (Homo sapiens, UniProt Q92633)
Sequence (Q92633 whole entry): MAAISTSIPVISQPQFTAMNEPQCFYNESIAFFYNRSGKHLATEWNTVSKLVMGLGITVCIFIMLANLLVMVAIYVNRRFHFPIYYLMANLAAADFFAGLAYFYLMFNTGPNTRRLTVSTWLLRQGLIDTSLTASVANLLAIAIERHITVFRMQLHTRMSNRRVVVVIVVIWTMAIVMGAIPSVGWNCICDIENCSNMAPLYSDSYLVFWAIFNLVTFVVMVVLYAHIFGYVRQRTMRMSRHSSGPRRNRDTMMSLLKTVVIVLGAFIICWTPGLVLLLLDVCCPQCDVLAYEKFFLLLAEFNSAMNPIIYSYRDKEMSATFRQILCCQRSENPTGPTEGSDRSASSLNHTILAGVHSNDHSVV
measurement.notes: Beta-Arrestin based assay (PathHunter)

Here "COc1cc(-c2cc3sc(-c4snc(C)c4NC(=O)O[C@H](C)c4ccccc4)cc3s2)ccc1CC(=O)O" was tested on LPA/S1P GPCR of interest (Homo sapiens, UniProt Q92633), and its EC50 came to > 0.5 µM

Here "Cc1cc(CC(=O)O)ccc1-c1cc2sc(-c3cnn(C)c3NC(=O)O[C@H](C)c3ccccc3)cc2s1" was tested on LPA/S1P GPCR of interest (Homo sapiens, UniProt Q92633), and its EC50 came to 0.05 to 0.5 µM

Here "C[C@@H](OC(=O)Nc1c(-c2cc3sc(-c4cnc(C5(C(=O)O)CC5)c(F)c4)cc3s2)cnn1C)c1ccccc1" was tested on LPA/S1P GPCR of interest (Homo sapiens, UniProt Q92633), and its EC50 came to 0.05 to 0.5 µM

Here "Cc1nsc(-c2ccc(-c3ncc(C(=O)O)s3)cc2)c1NC(=O)O[C@H](C)c1ccccc1" was tested on LPA/S1P GPCR of interest (Homo sapiens, UniProt Q92633), and its EC50 came to > 0.5 µM

Here "Cc1noc(-c2ccc(-c3ccc(Oc4c(F)cccc4C(=O)O)cc3)cc2)c1NC(=O)O[C@H](C)c1ccccc1" was tested on LPA/S1P GPCR of interest (Homo sapiens, UniProt Q92633), and its EC50 came to < 0.05 µM

Here "Cc1nsc(-c2cc3sc(-c4ccc(CC(=O)O)cc4OC(F)(F)F)cc3s2)c1NC(=O)O[C@H](C)c1ccccc1" was tested on LPA/S1P GPCR of interest (Homo sapiens, UniProt Q92633), and its EC50 came to > 0.5 µM

Here "C[C@@H](OC(=O)Nc1c(-c2cc3sc(-c4ccc(CC(=O)O)c(F)c4)cc3s2)cnn1C)c1ccccc1" was tested on LPA/S1P GPCR of interest (Homo sapiens, UniProt Q92633), and its EC50 came to < 0.05 µM

* * *

target.desc: LPA1 (Homo sapiens)
Sequence (Q92633 whole entry): as above
measurement.notes: LPA1 Migration Assay (Oris)
Assay type: cell-based
Design: host or cells: primary fibroblasts (lung, dermal), HFL-1, 3T3 and CHO cells expressing LPA1R
recorded.conditions: read-out: Cell Migration EC50
pEC50: −log10 of the molar value.
Assignment: determine reported pEC50 for the given compounds.

Memo: C[C@@H](OC(=O)Nc1c(-c2ccc(-c3ccc(Oc4ccccc4C(=O)O)c(F)c3)cc2)nnn1C)c1ccccc1 [IT447] , reported pEC50: > 7.30

Memo: COC(=O)c1ccccc1Oc1ccc(-c2ccc(-c3nnn(C)c3NC(=O)O[C@H](C)c3ccccc3)cc2)cc1 [IT478] , reported pEC50: 6.30 to 7.30

Memo: C[C@@H](OC(=O)Nc1c(-c2cc3sc(-c4cc(F)c(CC(=O)O)c(F)c4)cc3s2)nnn1C)c1ccccc1 [IT158] , reported pEC50: 6.30 to 7.30

Memo: C[C@@H](OC(=O)Nc1c(-c2cc3sc(-c4cc(F)c(C5(C(=O)O)CC5)cc4F)cc3s2)nnn1C)c1ccccc1 [IT348] , reported pEC50: 6.30 to 7.30

Memo: Cc1nsc(-c2ccc(C3CCC(C4(C(=O)O)CC4)CC3)cc2)c1NC(=O)O[C@H](C)c1ccccc1 (some centres unmarked) [IT091] , reported pEC50: < 6.30

Memo: Cc1nsc(-c2ccc(-c3ccc(OC4(C(=O)O)CC4)cc3)cc2)c1NC(=O)O[C@H](C)c1ccccc1 [IT513] , reported pEC50: 6.30 to 7.30

Memo: Cc1noc(C#Cc2ccc3cc(CC4(C(=O)O)CC4)ccc3c2)c1NC(=O)O[C@H](C)c1ccccc1 [IT065] , reported pEC50: < 6.30

Memo: Cc1nnn(-c2ccc(-c3cc(F)c(Oc4ccccc4C(=O)O)c(F)c3)cc2)c1NC(=O)O[C@H](C)c1ccccc1 [IT408] , reported pEC50: > 7.30

Memo: Cc1cc(CC(=O)O)ccc1-c1cc2sc(-c3nnn(C)c3NC(=O)O[C@H](C)c3ccccc3)cc2s1 [IT171] , reported pEC50: < 6.30

Memo: C[C@@H](OC(=O)Nc1c(-c2ccc(-c3ccc(C4(C(=O)O)CC4)cc3)cc2)sc2ncccc12)c1ccccc1 [IT031] , reported pEC50: 6.30 to 7.30

Memo: Cc1nsc(-c2ccc(-c3cc(F)c(Oc4ccsc4C(=O)O)c(F)c3)cc2)c1NC(=O)O[C@H](C)c1ccccc1 [IT462] , reported pEC50: > 7.30

Memo: C[C@@H](OC(=O)Nc1c(-c2ccc(-c3ccc(C4(C(=O)O)CC4)s3)cc2)nnn1C)c1ccccc1 [IT236] , reported pEC50: 6.30 to 7.30

Memo: C[C@@H](OC(=O)Nc1c(-c2ccc(-c3ccc(C4(C(=O)O)CC4)cc3)cc2)nc2cnccn12)c1ccccc1 [IT032] , reported pEC50: 6.30 to 7.30

Memo: Cc1noc(-c2ccc(-c3ccc(S(C)(=O)=O)cc3)cc2)c1NC(=O)O[C@H](C)c1ccccc1 [IT124] , reported pEC50: 6.30 to 7.30

Memo: Cc1noc(C#Cc2ccc3cc(C4(CC(=O)O)CC4)ccc3c2)c1NC(=O)O[C@H](C)c1ccccc1 [IT003] , reported pEC50: 6.30 to 7.30

Memo: CCC(C)OC(=O)Nc1c(C)noc1-c1ccc(-c2ccc(Oc3ccccc3C(=O)O)cc2)cc1 (single isomer, unassigned) [IT494] , reported pEC50: 6.30 to 7.30

Memo: CCOc1cc(CC(=O)O)ccc1-c1cc2sc(-c3snc(C)c3NC(=O)O[C@H](C)c3ccccc3)cc2s1 [IT192] , reported pEC50: < 6.30

Memo: Cc1noc(-c2ccc(-c3ccc(S(=O)(=O)CC4CC4)cc3)cc2)c1NC(=O)O[C@H](C)c1ccccc1 [IT174] , reported pEC50: < 6.30

Memo: C[C@@H](OC(=O)Nc1c(-c2cc3sc(-c4ccc(C5(C(=O)O)CC5)cc4F)cc3s2)nnn1C)c1ccccc1 [IT246] , reported pEC50: 6.30 to 7.30

Memo: Cc1noc(-c2ccc(-c3ccc(Oc4nnccc4C(=O)O)cc3)cc2)c1NC(=O)O[C@H](C)c1ccccc1 [IT231] , reported pEC50: 6.30 to 7.30

Memo: C[C@@H](OC(=O)Nc1c(-c2ccc(-c3ccc(Oc4ccc(F)cc4C(=O)O)cc3)cc2)nnn1C)c1ccccc1 [IT460] , reported pEC50: > 7.30

Memo: Cc1nsc(-c2ccc(NC(=O)c3csc(C4(C(=O)O)CC4)c3)cc2)c1NC(=O)O[C@H](C)c1ccccc1 [IT193] , reported pEC50: < 6.30

Memo: Cc1noc(-c2ccc(-c3ccc(Oc4c(F)cccc4C(=O)O)c(F)c3)cc2)c1NC(=O)O[C@H](C)c1ccccc1 [IT374] , reported pEC50: 6.30 to 7.30

Memo: Cc1nnn(-c2cc(F)c(-c3ccc(C4(C(=O)O)CCOCC4)cc3)cc2F)c1NC(=O)O[C@H](C)c1ccccc1 [IT030] , reported pEC50: < 6.30

Memo: CC(=O)NS(=O)(=O)c1ccc(-c2ccc(-c3onc(C)c3NC(=O)O[C@H](C)c3ccccc3)cc2)cc1 [IT131] , reported pEC50: < 6.30

Memo: Cc1nsc(-c2cc(F)c(-c3nc4sc(C5(C(=O)O)CC5)cc4s3)cc2F)c1NC(=O)O[C@H](C)c1ccccc1 [IT201] , reported pEC50: 6.30 to 7.30

Memo: C[C@@H](OC(=O)Nc1c(-c2cc(F)c(-c3cc4sc(C5(C(=O)O)CC5)cc4s3)cc2F)cnn1C)c1ccccc1 [IT121] , reported pEC50: > 7.30

Memo: Cc1noc(C#Cc2ccc(NC3(C(=O)O)CC3)cc2)c1NC(=O)O[C@H](C)c1ccccc1 [IT006] , reported pEC50: 6.30 to 7.30

Memo: C[C@@H](OC(=O)Nc1c(-c2cc(F)c(-c3nc4sc(C5(C(=O)O)CC5)cc4s3)cc2F)cnn1C)c1ccccc1 [IT279] , reported pEC50: 6.30 to 7.30

Values were extracted from patent US20140213538A1.
